Experiment: Cytotoxicity against human MT4 cells
Assay type: cell-based
Kindly supply the reported CC50 values for the records listed here.
Give bare numbers, in µM.

Observe how each entry below is paired with its result.
• Cc1[nH]c(=S)n(Nc2cccc(F)c2)c1-c1ccccc1 = 109
• CCc1[nH]c(=S)n(Nc2cccc(Cl)c2)c1-c1ccccc1 = 39
• Sc1nc(-c2ccccc2)c(-c2ccccc2)n1Nc1cccc(Cl)c1 = 36.3
• Cc1[nH]c(=S)n(Nc2cccc([N+](=O)[O-])c2)c1-c1ccccc1 = 48.3
• Cc1nc(S)n(Nc2cccc(Cl)c2)c1-c1ccc(Br)cc1 = 33.2

Give me CC50 for each of these compounds, listed below.
1. Cc1[nH]c(=S)n(Nc2ccc(F)cc2)c1-c1ccccc1
2. Cc1c(-c2ccccc2)nc(S)n1Nc1cccc(Cl)c1
3. COc1cccc(Nn2cnc(C)c2-c2ccccc2)c1
4. Cc1cccc(Nn2c(-c3ccccc3)c(C)[nH]c2=S)c1
5. Cc1nc(S)n(Nc2cccc(Cl)c2)c1C(=O)O

Response:
[220, 50, 34.4, 88.3, 265]
